# Assay: LTEA_HepaRG_LDH_cytotoxicity: Cytotoxicity Assessment in the Life Technologies and Expression Analysis (LTEA) Assay (AID 2283563)
The source made the active and inactive calls. Rule for the calls: active = hit-call score of the fitted dose curve at least 0.9, where 1 is the maximum; inconclusive = response in the unintended direction; inactive = score below 0.9.

| Compound | outcome |
| --- | --- |
| CC(C)(C)C(O)C(Oc1ccc(Cl)cc1)n1cncn1 (stereo not drawn) | inactive |
| CNC(=O)CSP(=S)(OC)OC | inactive |
| COc1nn(CSP(=S)(OC)OC)c(=O)s1 | inactive |

====

Below: a set of entries, each annotated with reported AC50.
# Test system: DIO1 (gene 1733)
# Assay: CCTE_GLTED_hDIO1: CCTE's human Deiodinase 1 (DIO1) Inhibition Assay, Great Lakes Toxicology and Ecology Division (GLTED) Lab (AID 2283987);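 note: isolated human DIO1 enzyme in a cell-free setup rather than cells; enzyme activity read as free iodide liberated from substrate via Sandell-Kolthoff colorimetry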
Inconclusive results are not listed. Active and inactive are the calls of the source. Rule for the calls: active = hit-call score of the fitted dose curve at least 0.9, where 1 is the maximum; inconclusive = response in the unintended direction; inactive = score below 0.9.

| Compound | AC50 |
| --- | --- |
| COP(=S)(OC)Oc1ccc(SC)c(C)c1 | 10.7 µM (active) |
| N#Cc1c(Cl)c(Cl)c(Cl)c(C#N)c1Cl | 30.1 µM (active) |
| Oc1cc(Cl)ccc1Oc1ccc(Cl)cc1Cl | 60.4 µM (active) [middle of 5 runs] |
| CCC(C)(NC(=O)c1cc(Cl)c(C)c(Cl)c1)C(=O)CCl (centres undefined) | 16.1 µM (active) |

src = PubChem BioAssay (EPA / NIEHS)
